B1: PPEF2 (parent)
chain: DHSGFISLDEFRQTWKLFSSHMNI

Variants of: B1
Test description: protein stability index of a GFP-peptide fusion (GPS, HEK-293T) (PSI 1-6); higher = more stable;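 further: lentivirally expressed fusions sorted by FACS into six bins by GFP to DsRed ratio, PSI derived from sequencing read proportions per bin multiplied by bin number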
Condition summary: c terminus: a fixed tail appended
The threshold is inclusive: protein stability index of exactly 2 counts as Condition met; values below receive Condition not met.

L8H	Condition met
F18D	Condition met
S7W	Condition met
H2F	Condition not met
G4S	Condition not met
I24L	Condition not met
R12E	Condition not met
I24Q	Condition not met
F5L	Condition not met
Q13W	Condition met
S19D	Condition not met
T14M	Condition not met
S20W	Condition met
S3Y	Condition met
F18R	Condition not met
F11E	Condition met
M22A	Condition not met
H21V	Condition met
S3R	Condition met
L8S	Condition not met
W15G	Condition not met
S19V	Condition met
I24F	Condition not met
S7K	Condition not met
I6C	Condition not met
D9G	Condition met
K16N	Condition not met
D9N	Condition not met
Q13T	Condition met
F11Q	Condition not met
M22V	Condition not met
S3P	Condition not met
S7E	Condition not met
T14F	Condition not met
K16L	Condition met
S20V	Condition met
W15D	Condition met
W15H	Condition not met
S19L	Condition not met
W15P	Condition not met
D1P	Condition met
I6D	Condition not met
H21T	Condition met
L8M	Condition not met
T14N	Condition not met
W15K	Condition met
N23H	Condition met
R12A	Condition not met
M22Q	Condition not met
H2A	Condition met
L8A	Condition not met
F18Y	Condition met
S20Q	Condition not met
F5A	Condition not met
D9T	Condition met
I24K	Condition not met
F18M	Condition not met
F18Q	Condition not met
E10V	Condition met
R12F	Condition met
K16S	Condition not met
F11W	Condition not met
M22T	Condition not met
L8V	Condition met
L17Q	Condition not met
F5W	Condition not met
H21P	Condition met
F5Q	Condition not met
S3C	Condition not met
L8P	Condition not met
I6N	Condition not met
N23Y	Condition met
W15I	Condition not met
H21L	Condition not met
D1S	Condition met
N23C	Condition met
I6H	Condition not met
H21D	Condition not met
I6K	Condition not met
Q13P	Condition met
I6T	Condition not met
H2T	Condition not met
